EXPERIMENTAL TARGET: Urea transporter 1 (Homo sapiens)
Sequence (Q13336 whole entry): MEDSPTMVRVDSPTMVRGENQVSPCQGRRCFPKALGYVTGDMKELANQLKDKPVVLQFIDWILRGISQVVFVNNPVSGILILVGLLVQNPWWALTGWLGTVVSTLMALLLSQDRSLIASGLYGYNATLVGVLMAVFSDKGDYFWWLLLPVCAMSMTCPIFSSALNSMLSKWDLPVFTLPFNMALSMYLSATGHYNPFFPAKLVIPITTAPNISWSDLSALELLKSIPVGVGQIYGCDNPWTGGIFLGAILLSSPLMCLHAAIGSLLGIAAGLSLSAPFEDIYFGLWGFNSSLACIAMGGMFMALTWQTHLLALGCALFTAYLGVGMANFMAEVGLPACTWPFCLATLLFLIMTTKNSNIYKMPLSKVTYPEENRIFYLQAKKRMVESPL
ASSAY EXPLANATION: Inhibition of urea transporter B in human erythrocytes incubated for 6 mins by spectrophotometric analysis based erythrocyte lysis assay
PROPERTY MEASURED: pIC50
Friendly reminder that pIC50 comes from taking -log10 of the concentration in mol/L.

-- ask Any idea what pIC50 was measured for `CC(=O)c1sc2nc3ccc(C)cc3cc2c1N` ?
-- reply 5.76

###

EXPERIMENTAL TARGET: Urea transporter 1 (Rattus norvegicus, UniProt P97689)
Sequence (P97689 whole entry): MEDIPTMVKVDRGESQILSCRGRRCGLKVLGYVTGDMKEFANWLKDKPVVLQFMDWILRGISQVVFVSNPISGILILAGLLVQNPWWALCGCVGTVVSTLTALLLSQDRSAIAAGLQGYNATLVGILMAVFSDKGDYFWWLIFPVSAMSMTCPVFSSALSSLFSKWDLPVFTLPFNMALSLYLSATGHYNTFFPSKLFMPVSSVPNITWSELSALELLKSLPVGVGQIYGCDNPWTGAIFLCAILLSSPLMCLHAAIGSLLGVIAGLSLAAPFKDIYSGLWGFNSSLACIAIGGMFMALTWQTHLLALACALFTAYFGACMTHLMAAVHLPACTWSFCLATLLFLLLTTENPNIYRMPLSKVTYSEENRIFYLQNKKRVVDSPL
ASSAY EXPLANATION: Inhibition of urea transporter B in Sprague-Dawley rat erythrocytes incubated for 6 mins by spectrophotometric analysis based erythrocyte lysis assay
Format: cell-based
pIC50: −log10 of the molar value.
PROPERTY MEASURED: pIC50

-- ask Which pIC50 is reported for this molecule? `COC(=O)c1sc2nc(C(=O)N3CCOCC3)ccc2c1N`
-- reply < 5.00

-- ask Can you share its pIC50? I mean this molecule: `COc1ccc2nc3sc(C(N)=O)c(N)c3cc2c1`
-- reply < 5.00

-- ask Fill blank: measured pIC50 of the molecule `COC(=O)c1sc2nc(C)c(F)cc2c1N` is ____.
-- reply < 5.00

-- ask Need pIC50, item `CNC(=O)c1cc2c(N)c(C(=O)OC)sc2nc1C`
-- reply < 5.00

-- ask So what's the measured pIC50 for this one? `CNC(=O)c1sc2nc3ccc(OC)cc3cc2c1N`
-- reply < 5.00

-- ask Quick one: pIC50 of `CCNC(=O)c1cc2c(N)c(C(=O)OC)sc2nc1C` ?
-- reply < 5.00

-- ask Looking for the measured pIC50 of `COC(=O)CC(=O)c1sc2nc3ccc(OC)cc3cc2c1N` , can you help?
-- reply < 5.00

-- ask Can you share its pIC50? I mean this molecule: `COc1ccc2nc3sc(C(=O)N4CCOCC4)c(N)c3cc2c1`
-- reply < 5.00

-- ask # pIC50 lookup, item `COc1ccc2nc3sc(S(=O)(=O)N(C)C)c(N)c3cc2c1`
-- reply < 5.00

-- ask Which measured pIC50 value corresponds to `COC(=O)CNC(=O)c1sc2nc3ccc(OC)cc3cc2c1N` ?
-- reply < 5.00

-- ask Query (molecule): `CCOC(=O)c1sc2nc3ccc(OC)cc3cc2c1N` ; field requested: pIC50
-- reply < 5.00

-- ask Requested field: pIC50. Item: `COc1ccc2nc3sc(C(=O)O)c(N)c3cc2c1`
-- reply < 5.00

-- ask For `CCOC(=O)c1cnc2sc(C(=O)OC)c(N)c2c1` , what is its reported pIC50?
-- reply < 5.00

-- ask Return reported pIC50; argument: `COC(=O)c1sc2nc(C)c(NS(C)(=O)=O)cc2c1N`
-- reply 5.19

-- ask What value of pIC50 has been recorded for this entry: `COC(=O)c1sc2nc(C)c(N)cc2c1N`
-- reply 6.27

-- ask Which value of pIC50 has been reported for `COC(=O)c1sc2nc(C)c(C(=O)N3CCOCC3)cc2c1N` in the records?
-- reply < 5.00

-- ask // returns reported pIC50 for input `COC(=O)c1sc2nc(C)c(N(C)C)cc2c1N`
-- reply 5.43

-- ask Requested field: pIC50. Item: `COc1ccc2nc3sc(C(C)=O)c(N)c3cc2c1`
-- reply 5.79

-- ask # input molecule: `COC(=O)c1sc2nc3ccc(F)cc3cc2c1N` ; wanted: its pIC50
-- reply 6.80

-- ask Suppose we examine the molecule `COC(=O)c1sc2nc(C)cc(C(F)(F)F)c2c1N` ; what pIC50 value has been reported?
-- reply 5.21

-- ask For the molecule `COC(=O)c1sc2nc(C)c([N+](=O)[O-])cc2c1N` , what pIC50 is on record?
-- reply < 5.00

-- ask For `COC(=O)c1sc2nc(C)c(OC)cc2c1N` , what is its reported pIC50?
-- reply 5.26

-- ask Recorded pIC50 of `COC(=O)c1sc2nc(C)c(NC(C)=O)cc2c1N` , please.
-- reply 5.46

-- ask Sample `COC(=O)c1sc2nc(C)cc(C)c2c1N` — what was its pIC50?
-- reply 5.60
